All figures here come from PubChem BioAssay (NCI).

System: DU-145 prostate
Experiment: NCI tumour cell line growth inhibition, 48 h; in the data active means GI50 below about 0.43 µM; inactive means the rest
Pick one and only one: active, inactive

As a guide, the following entries are already answered.
C[C@@H]1OC(=O)NN=C1c1ccc(-c2ccc(F)cc2)c(C(F)(F)F)c1 :: inactive
COc1cc2c(cc1OC)-c1ncc3cc(OC)c(OC)cc3c1C2 :: inactive

Req: Status in this test for Clc1ccc(COC(Cn2ccnc2)c2ccc(Cl)cc2Cl)c(Cl)c1 (centres undefined) ?
Resp: inactive

Req: Then O=C1c2ccccc2-c2c1c1ccc([N+](=O)[O-])cc1c(=O)n2CCCn1ccnc1 ?
Resp: active

Req: Then CN1CCN(Cc2ccc(NC(=O)c3cccc(C#Cc4c(N)ncc5ccc(F)cc45)c3)cc2C(F)(F)F)CC1 ?
Resp: inactive

Req: Then C#CCN(Cc1nc2cc(C(F)(F)F)ccc2nc1-c1ccccc1)c1ccc(F)cc1 ?
Resp: inactive

Req: Then Cc1cc(C)c(O)c(CNCCCNCc2cc(C)cc(C)c2O)c1 ?
Resp: inactive

Req: Then COC(=O)[C@H](Cc1cn(C)cn1)NC(=O)[C@@H](NC(=O)Nc1cc(C(F)(F)F)cc(C(F)(F)F)c1)C(C)(C)C ?
Resp: inactive

Req: Then N#Cc1ccc(NC(=O)Nc2nc3ccc(OC(F)(F)F)cc3s2)cc1 ?
Resp: inactive

Req: Then CCN(CC)c1ccc(/C=N/NC(=O)c2ccccc2Nc2ccnc(C(F)(F)F)c2)c(O)c1 ?
Resp: active

Req: Then COc1ccc(-c2cc(-c3ccc(Cl)cc3)nc(SCCCCCCC(=O)NO)n2)cc1 ?
Resp: inactive

Req: Then CCCCCCCCCC[N+](C)(C)C ?
Resp: inactive

Req: Then Cc1ccc(-n2c3c(c4c(CN)c(O)ccc42)CCc2ccccc2C3=O)cc1 ?
Resp: inactive

Req: Then CSC1SCC2C(=O)N(C)C(C(C)C)C(=O)OCC(NC(=O)c3cnc4ccccc4n3)C(=O)NC(C)C(=O)N(C)C1C(=O)N(C)C(C(C)C)C(=O)OCC(NC(=O)c1cnc3ccccc3n1)C(=O)NC(C)C(=O)N2C (centres undefined) ?
Resp: active
